These measurements were taken from patent US5869492A.

The following compounds are shown together with reported Ki values.
Biological target: 5-hydroxytryptamine (5-HT) reuptake sites (Rattus norvegicus, UniProt P31652)
Construct: Frontal cortical tissue from the brains of male Sprague-Dawley rats; from tissue; host or cells: crude frontal cortical synaptosomes of male Sprague-Dawley rats (Charles River)
Sequence (P31652 whole entry): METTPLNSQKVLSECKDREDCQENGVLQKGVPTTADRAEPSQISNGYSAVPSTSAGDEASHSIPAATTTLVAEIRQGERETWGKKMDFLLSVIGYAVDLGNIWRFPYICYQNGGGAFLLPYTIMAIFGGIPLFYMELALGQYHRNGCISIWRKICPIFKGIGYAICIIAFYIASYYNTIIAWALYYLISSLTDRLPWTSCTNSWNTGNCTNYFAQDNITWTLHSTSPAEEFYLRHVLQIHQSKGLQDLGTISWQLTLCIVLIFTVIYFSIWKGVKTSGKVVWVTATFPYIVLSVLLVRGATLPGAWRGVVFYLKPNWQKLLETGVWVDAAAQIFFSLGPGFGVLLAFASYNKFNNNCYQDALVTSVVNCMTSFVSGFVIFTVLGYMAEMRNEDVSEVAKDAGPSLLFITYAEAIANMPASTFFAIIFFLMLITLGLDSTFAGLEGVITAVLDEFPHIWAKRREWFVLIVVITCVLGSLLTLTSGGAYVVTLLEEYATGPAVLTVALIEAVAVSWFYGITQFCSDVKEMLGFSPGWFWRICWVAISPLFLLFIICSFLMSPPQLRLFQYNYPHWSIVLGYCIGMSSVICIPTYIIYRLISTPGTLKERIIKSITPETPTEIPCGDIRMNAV
Assay: [3H]5-HT uptake into rat frontal cortical synaptosomes
Type: biochemical
Details: [3H]5-HT 2 nM, rat frontal cortical synaptosomes; mean of three determinations unless marked (* two); read-out: 5-HT uptake Ki
Reply numerically in nM, unit not repeated.

INSERT INTO assay_data (chemical_smiles, measurement_unit, result) VALUES
  ('C1=C(c2csc3ccccc23)N2CCCN=C2S1', 'nM', 305);

Turning to the following compound.
Request: Ki, test system 5-hydroxytryptamine (5-HT) reuptake sites (Rattus norvegicus, UniProt P31652), entry C1=C(c2coc3ccccc23)N2CCCN=C2S1
881
